Each entry below carries its reported Ki.
Target: recombinant 5-HT2c receptor (human) (Homo sapiens)
Sequence (P28335 33-458): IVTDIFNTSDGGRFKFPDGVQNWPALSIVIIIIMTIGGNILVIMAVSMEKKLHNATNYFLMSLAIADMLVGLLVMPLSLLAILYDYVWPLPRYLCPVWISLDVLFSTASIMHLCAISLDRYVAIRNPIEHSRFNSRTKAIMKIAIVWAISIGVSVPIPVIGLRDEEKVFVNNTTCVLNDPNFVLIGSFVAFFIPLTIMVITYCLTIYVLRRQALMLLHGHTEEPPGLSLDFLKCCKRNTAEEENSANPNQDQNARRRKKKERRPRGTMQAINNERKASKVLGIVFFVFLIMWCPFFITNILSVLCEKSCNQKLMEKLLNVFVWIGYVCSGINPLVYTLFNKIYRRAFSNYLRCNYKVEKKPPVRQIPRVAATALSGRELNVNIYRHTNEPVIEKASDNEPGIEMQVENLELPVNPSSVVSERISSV
Assay: 5-HT2c competition binding assay ([125I]-DOI SPA)
Procedure: [^125I]-(±)DOI binding experiments are carried out in SPA 96-well format. Membranes used in this assay are prepared from AV-12 cells stably expressing recombinant 5-HT2c receptor (human). […] Non-specific binding is determined in the presence of 20 μM 1-(1-Naphthyl)piperazine. Samples are incubated for four hours at room temperature (22° C.) and then read in a Microbeta Trilux. […]
Structures can show the parent of a compound that is named as a salt.
experimental endpoint: Ki (µM)

> print(dat)
                                   compound                              assay.target  result.value
1  Cc1cc2n(c1)Cc1cc(Cl)ccc1N=C2N1CCN(CC(C)(C)C(=O)O)CC1 [Example 13, dihydrochloride]  recombinant 5-HT2c receptor (human) (Homo sapiens)          2.37
2  Cc1cc2n(c1)Cc1cc(Cl)ccc1N=C2N1CCN(CC(C)(C)C(=O)O)CC1 [Example 1]  recombinant 5-HT2c receptor (human) (Homo sapiens)          3.81
